# SYSTEM: UniProt:P11940
# Sequence (P11940 whole entry): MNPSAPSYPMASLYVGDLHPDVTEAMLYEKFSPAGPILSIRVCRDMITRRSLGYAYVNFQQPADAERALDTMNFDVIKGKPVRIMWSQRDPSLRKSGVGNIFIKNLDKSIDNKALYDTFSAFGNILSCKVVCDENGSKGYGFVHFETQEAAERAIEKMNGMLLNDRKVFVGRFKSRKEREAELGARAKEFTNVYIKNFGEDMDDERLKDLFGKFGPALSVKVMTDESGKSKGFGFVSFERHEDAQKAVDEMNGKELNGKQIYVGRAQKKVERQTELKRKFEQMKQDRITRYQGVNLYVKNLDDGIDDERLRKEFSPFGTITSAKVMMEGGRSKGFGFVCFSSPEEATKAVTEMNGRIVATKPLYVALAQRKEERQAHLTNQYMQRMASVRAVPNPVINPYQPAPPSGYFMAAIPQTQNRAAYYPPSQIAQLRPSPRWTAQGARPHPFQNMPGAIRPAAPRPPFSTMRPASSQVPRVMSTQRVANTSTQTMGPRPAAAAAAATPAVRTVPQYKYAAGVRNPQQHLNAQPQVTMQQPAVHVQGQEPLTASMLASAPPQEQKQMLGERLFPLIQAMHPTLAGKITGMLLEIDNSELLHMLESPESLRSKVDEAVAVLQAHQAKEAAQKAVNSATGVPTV
# EXPERIMENT SUMMARY: MLLE binding blockers, Cy5 peptide tracer – biochemical, fluorescence polarization, Cy5-PAM2 peptide, secondary, miRNA deadenylation inhibitor project, dose response (AID 602260)
# Type: functional
# TEST SETTINGS: read-out: IC50_Mean
Activity calls are given as the source filed them.
Listed below: IC50 values for each entry.
MEASURED ATTRIBUTE: IC50

                                   molecule      endpoint_value
0  O=C(NN=Cc1sc(=O)[n-]c1-[n+]1ccccc1)c1ccccc1O  > 66 µM (inactive)
1   COc1ccc(NC(=O)Nc2ccc(OCc3ccccc3)cc2)cn1  > 66 µM (inactive)
2  Cc1nc(NC(=S)NC(=O)c2ccccc2)sc1C(=O)N(C)C  > 66 µM (inactive)
3  CC1CCCN(c2nc3ccccc3nc2C(C#N)S(=O)(=O)c2cccs2)C1 (stereo unspecified)  > 66 µM (inactive)
4              CCCc1nc2ccc(Cl)cn2c1Cc1ccsc1  51.2 µM (inactive)
5          O=CNc1ccc2c3c(cccc13)-c1ccccc1-2  33.1 µM (inactive)

---

# SYSTEM: Replicative DNA helicase DnaB (Mycobacterium tuberculosis, UniProt P9WMR3)
# Sequence (P9WMR3 1-399, added parts left off): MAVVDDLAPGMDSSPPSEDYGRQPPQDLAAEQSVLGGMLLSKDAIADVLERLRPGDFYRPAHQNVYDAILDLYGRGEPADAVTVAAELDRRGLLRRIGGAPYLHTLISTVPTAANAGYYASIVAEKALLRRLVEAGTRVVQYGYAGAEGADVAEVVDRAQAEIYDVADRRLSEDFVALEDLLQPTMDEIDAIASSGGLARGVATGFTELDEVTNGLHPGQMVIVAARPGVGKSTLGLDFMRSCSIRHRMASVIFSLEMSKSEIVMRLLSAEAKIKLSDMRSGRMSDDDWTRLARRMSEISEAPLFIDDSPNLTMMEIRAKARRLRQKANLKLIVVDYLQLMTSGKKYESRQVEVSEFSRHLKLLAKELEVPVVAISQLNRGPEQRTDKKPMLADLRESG
# EXPERIMENT SUMMARY: DnaB intein splicing inhibitors, dose response, biochemical, cell-free fluorescence (AID 449749)
# Assay type: functional
Activity calls are given as the source filed them.
MEASURED ATTRIBUTE: AC50

                                 smiles_str    endpoint_value
0  CC(=O)Nc1cc(OC(=O)c2ccco2)cc(OC(=O)c2ccco2)c1  1.77 µM (active)
1  O=C(O)CCCN1C(=O)/C(=C\C(Cl)=C\c2ccccc2)SC1=S  9.77 µM (active)
2  Cc1nn(C(=O)CNS(=O)(=O)c2ccccc2)c(C)c1Sc1ccc(Cl)cc1   4.2 µM (active)

---

# SYSTEM: Fatty acid synthase (Homo sapiens)
# Sequence (P49327 whole entry): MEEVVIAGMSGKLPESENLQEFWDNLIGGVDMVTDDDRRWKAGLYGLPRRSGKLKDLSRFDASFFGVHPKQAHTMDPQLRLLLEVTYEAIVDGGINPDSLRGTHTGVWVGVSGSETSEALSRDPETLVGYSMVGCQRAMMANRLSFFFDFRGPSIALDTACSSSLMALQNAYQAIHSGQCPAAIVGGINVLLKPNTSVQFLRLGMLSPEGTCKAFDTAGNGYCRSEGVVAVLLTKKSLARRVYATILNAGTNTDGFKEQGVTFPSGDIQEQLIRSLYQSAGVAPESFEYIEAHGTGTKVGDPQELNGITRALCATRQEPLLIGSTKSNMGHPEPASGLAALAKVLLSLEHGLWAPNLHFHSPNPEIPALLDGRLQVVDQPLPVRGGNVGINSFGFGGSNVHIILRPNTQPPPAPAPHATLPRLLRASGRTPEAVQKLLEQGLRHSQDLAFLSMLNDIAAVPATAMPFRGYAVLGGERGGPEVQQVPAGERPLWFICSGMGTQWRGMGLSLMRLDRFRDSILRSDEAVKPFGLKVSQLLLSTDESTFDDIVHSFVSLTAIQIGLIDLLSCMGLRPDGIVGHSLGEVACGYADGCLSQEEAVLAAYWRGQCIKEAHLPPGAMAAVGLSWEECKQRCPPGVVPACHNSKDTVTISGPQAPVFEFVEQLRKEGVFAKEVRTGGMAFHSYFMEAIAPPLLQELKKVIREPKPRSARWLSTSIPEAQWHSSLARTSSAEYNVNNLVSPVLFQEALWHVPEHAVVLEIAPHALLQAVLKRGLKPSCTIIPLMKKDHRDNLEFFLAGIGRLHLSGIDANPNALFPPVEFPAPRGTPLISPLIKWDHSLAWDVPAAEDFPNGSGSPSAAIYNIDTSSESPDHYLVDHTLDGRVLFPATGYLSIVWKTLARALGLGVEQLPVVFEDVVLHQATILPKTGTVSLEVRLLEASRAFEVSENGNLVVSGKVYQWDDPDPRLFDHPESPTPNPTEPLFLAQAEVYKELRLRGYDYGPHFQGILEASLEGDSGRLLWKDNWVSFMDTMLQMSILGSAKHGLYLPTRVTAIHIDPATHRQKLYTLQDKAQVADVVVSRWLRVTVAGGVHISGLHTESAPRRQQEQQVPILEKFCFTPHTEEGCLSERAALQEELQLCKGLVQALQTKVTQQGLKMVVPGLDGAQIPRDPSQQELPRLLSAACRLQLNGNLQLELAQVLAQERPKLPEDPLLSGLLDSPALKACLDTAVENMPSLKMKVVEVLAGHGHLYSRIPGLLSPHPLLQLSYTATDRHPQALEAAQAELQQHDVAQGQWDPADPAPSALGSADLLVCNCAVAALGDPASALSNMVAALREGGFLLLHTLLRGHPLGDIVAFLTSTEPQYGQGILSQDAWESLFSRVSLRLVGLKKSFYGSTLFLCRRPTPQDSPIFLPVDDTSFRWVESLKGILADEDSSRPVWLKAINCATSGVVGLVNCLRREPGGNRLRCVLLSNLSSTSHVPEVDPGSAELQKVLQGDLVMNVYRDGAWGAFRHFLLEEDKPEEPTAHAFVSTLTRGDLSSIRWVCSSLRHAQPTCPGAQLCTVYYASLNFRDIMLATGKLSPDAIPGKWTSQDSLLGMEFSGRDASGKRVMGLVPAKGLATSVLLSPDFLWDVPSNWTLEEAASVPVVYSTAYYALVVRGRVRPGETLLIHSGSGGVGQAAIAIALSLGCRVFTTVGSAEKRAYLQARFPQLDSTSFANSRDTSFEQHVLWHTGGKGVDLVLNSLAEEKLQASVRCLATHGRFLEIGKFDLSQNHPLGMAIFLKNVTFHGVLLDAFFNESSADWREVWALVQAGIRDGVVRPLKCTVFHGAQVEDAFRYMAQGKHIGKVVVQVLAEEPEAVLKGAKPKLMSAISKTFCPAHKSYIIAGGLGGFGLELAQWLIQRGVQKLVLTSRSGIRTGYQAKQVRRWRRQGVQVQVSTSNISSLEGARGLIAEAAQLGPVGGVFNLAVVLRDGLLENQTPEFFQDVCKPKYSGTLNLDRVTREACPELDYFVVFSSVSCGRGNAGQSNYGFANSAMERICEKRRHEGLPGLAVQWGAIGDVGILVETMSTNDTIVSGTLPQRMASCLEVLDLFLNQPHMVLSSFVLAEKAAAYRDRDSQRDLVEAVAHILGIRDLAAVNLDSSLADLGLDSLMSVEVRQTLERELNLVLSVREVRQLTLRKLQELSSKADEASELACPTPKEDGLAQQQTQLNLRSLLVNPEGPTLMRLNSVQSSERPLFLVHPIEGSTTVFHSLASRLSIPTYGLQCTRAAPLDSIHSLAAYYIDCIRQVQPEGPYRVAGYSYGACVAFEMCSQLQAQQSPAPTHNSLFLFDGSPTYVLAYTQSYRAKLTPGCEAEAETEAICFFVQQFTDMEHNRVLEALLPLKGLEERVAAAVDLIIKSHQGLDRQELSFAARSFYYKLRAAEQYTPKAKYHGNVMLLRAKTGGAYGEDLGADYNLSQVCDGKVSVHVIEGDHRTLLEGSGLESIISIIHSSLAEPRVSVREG
# EXPERIMENT SUMMARY: inhibition of human FAS-TE enzyme activity – biochemical, kinetic fluorescence intensity, dose response (AID 624326);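 note: rate of fluorescence rise from hydrolysis of a fluorogenic O-methyl fluorescein ester substrate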
# Format: functional
The source made the active and inactive calls.
In this section we review reported IC50 values for a set of molecules.
MEASURED ATTRIBUTE: IC50

>>> print(df.to_string())
                                    molecule    endpoint_value
 0  CCCOc1ccc(NC(=O)CC2C(=O)N(CC)C(=S)N2Cc2cccs2)cc1 (stereo unspecified)  10.9 µM (active)
 1  O=C(CC1C[C@H](C(=O)N2CCOCC2)[C@@]2(CCC3CCCC3)c3[nH]c4ccccc4c3CCN2C1=O)NCc1cccc(C(F)(F)F)c1 (stereo partly specified)  8.04 µM (active)
 2  CCCCC(=O)N/N=C/c1cc([N+](=O)[O-])ccc1N1CCOCC1  4.13 µM (active)
 3  O=C(/C=C/c1cccc([N+](=O)[O-])c1)N1CCN(c2ccc(F)cc2)CC1  4.93 µM (active)
 4  CC(C)(C)N1C(=O)[C@H]2[C@@H](c3ccc(Br)cc3)N3C(=O)N(c4cccc(F)c4)C(=O)[C@@]3(Cc3ccccc3)[C@H]2C1=O  10.8 µM (active)
 5  O=C(NCCC1=CCCCC1)c1ccc(Cl)c([N+](=O)[O-])c1  9.92 µM (active)
 6  COc1ccccc1N1CCN(C(=O)C(C)NC(=O)c2cccc([N+](=O)[O-])c2)CC1 (stereo unspecified)  1.48 µM (active)
 7  Cc1ccc(S(=O)(=O)N2C[C@H]3[C@H]4C(=O)N(c5ccccc5)C(=O)[C@H]4CC(=O)[C@H]3[C@@H]2c2cccc3ccccc23)cc1  15.6 µM (active)
 8  CC(=O)c1cccc(-c2ccnc3c2CC(C(=O)Nc2cccc(OC(F)(F)F)c2)O3)c1 (stereo unspecified)  6.27 µM (active)
 9  CCOC(=O)[C@]12Cc3cc(Cl)ccc3[C@H]1N(C1CCCCC1)C(=O)c1cc(OC)ccc12  3.04 µM (active)
10  O=[N+]([O-])c1ccc(Cl)c(S(=O)(=O)Nc2ccc(-c3ccc(N4CCCC4)nn3)cc2)c1  11.3 µM (active)
